Assign Neut IC50 (µg/ml) subtype B to each entry below.
target: RSV F protein of subtype B (18537) on recombinant mKate-RSV virus (Respiratory syncytial virus subtype B …, UniProt P13843 26-574); assay: cell-based or functional assay
Numbers only here, please. The scale is µg/mL.

I would be grateful if you could share the reported Neut IC50 (µg/ml) subtype B for ADI-18973 (antibody, V domains shown, full-length IgG from yeast) VH: QVQLVQSGPALVKPTQTLTLTCTFGGFSLSRHGMRVTWIRQAPGKALEWLGHIDWDDDKFYRTSLKTRLTISKDPSNNEVVLKMTNMDHVDTATYYCALMRPFWSRDDYYYSIAVWGKGTTVTVSS VL: DIVLTQSPGTLSLSPGDRATLSCRASQSVGSGYVTWYQQKPGQAPRLLIYGASNRAEGIPDRFSGSGSGTDFTLTISGLESEDFVIYYCQLYHRSPGSASQTVWTFGQGTKVEIK . 6.27

ADI-18949 (antibody, V domains shown, full-length IgG from yeast) VH: QVQLVQSGAEVKKPGASVKVSCKTSGYTFSNYGISWLRQAPGQGLEWMAWISPYNGNTKSAQRFQGRVIMTTDTSTRTAHMEVKSLRTDDTATYYCARDPAVDAIPMLDYWGQGTMVTVSS VL: EIVLTQSPLSLPVTLGQPASISCRSSQSLVYTDGNTYLSWFQQRPGQSPRRLIYRVSHRDSGVPDRFTGSGSGTDFTLIIRRVEAEDVGVYYCMQGTHWPLTFGGGTKVEIK ? 0.076

Also ADI-18878 (antibody, V domains shown, full-length IgG from yeast; also called Antibody Number 235; Ab # 235) VH: QVQLQESGPRLVKPSQTLSLICDVSGGSIGSGDHYWSWIRQPPGKGLEWIGYIYYSGTTYYNPSLKSRVTISADTSKNQLSLKLSSVTAADTAIYFCARDGGYDHVWGTHRYFDKWGQGTLVTVSS VL: EIVLTQSPGTLSLSPGERATLSCRASQSVSNSYLAWYQQKPGQAPRLLIYGVSTRATGIPDRFSGSGSGTDFTLTISRLEPEDFAMYHCQQYGASPWTFGQGTKVDIK ? 8.31

// repeat for ADI-18909 (antibody, V domains shown, full-length IgG from yeast; also called Antibody Number 264; Ab # 264) VH: QVQLQESGPGLVKPSQTLSLTCTVSGRFLNSGDYYWSWIRQSPGKGLEWLGYIHHSGNTYYNPSLKSRLTISLDMSKNQFSLKLSSVTAADTAVYYCARDLGKPLWDGHYYYGVDVWGQGTTVTVSS VL: DIVMTQSPGTLSLSPGERATLSCRTSQNVNSNYLAWYQHKPGQAPRLLIYGASSRVTGIPDRFSGSGSGTDFTLTITRVESEDFAVYYCQVYSSSPPITFGQGTKVEIK and report 0.169

// repeat for ADI-18889 (antibody, V domains shown, full-length IgG from yeast; also called Antibody Number 244; Ab # 244) VH: QVQLQQWGAGLWKPSQTLSLTCAVHGGSLSGYSWSWIRQSPGRGLEWIGEVNRRGTTNYNPSLKGRVSISWDTSKNQVSLSLRSVTAADTATYYCAGTNVGFVNTHNDYYFGMDVWGQGTTVTVSS VL: DIVMTQSPSSLSASVGDRVTITCRASQSISNYVNWYQKKTGQVPKLLIYGASNLESGVPSRFSGGGSGTDFTLTISSLQPEDFATYYCQQSYSVPLTFGGGTKVEIK and report 0.019

Next record, please: ADI-18947 (antibody, V domains shown, full-length IgG from yeast) VH: QVQLVQSGGGVVQSGRSLRLSCAASGFTFSDNGMHWVRQAPGKGLEWVAGIFHDGSNKQYAESVKGRFIISRDNSKNTLYLQMNSLRAEDTALYFCARAPYDIWSGYCLDYWGQGTLVTVSS VL: DIRMTQSPATLSLSPGESATLSCRASQSVINNLAWYQQRPGQAPRLLIYGASTRATGIPARFSGSGSETEFTLTISSLQSEDFAVYHCQQYSIWPQTFGQGTKLEIK 3.6

// repeat for ADI-18923 (antibody, V domains shown, full-length IgG from yeast) VH: EVQLLESGGGLVKPGGSLRLSCAASGFTFSSYSMNWVRQAPGKGLEWVSSISSSSSYIYYADSVKGRFTISRDNAKNSLYLQMNSLRAEDTAVYYCARDWPNSSSSPNWFDPWGQGTLVTVSS VL: QSVLTQPPSVSGAPGQRVTISCTGSSSNIGAGYDVHWYQQLPGTAPKLLIYGNSNRPSGVPDRFSGSKSGTSASLAITGLQAEDEADYYCQSYDSSLSGFYVFGTGTKLTVL and report 0.147

Would you mind doing ADI-18942 (antibody, V domains shown, full-length IgG from yeast; also called Antibody Number 295; Ab # 295) VH: QVQLQESGPGRVKPSQTLSLTCTVSGVSVTINDYYWTWLRQSPGKGLEWIGNIYNSGSTYQNPSLQSRVTMSVDTAKNHFSLKLTSVTAADTAVYYCARDLGTANNYYFGMDVWGLGTTVTVSS VL: EIVMTQSPATLSLSPGERATLSCRASQSVSTYLAWYQQKPGQAPRLLIYNGSNRVTGTPARFSGSGSGTDFTLTISSVEPEDFAVYYCQQRSNWPPYTFGQGTKVEIK as well? 0.614

Record: ADI-18919 (antibody, V domains shown, full-length IgG from yeast) VH: QVQLQESGPGLEKPSQTLSLTCTVSRGSIRIGGYFWSWIRQHPGKGLEWLGYISNDGATDYNPSLRSRLAISADTSKNQFSLTLRSVTAADTAIYYCARTSYAGRMLDRWGQGILVTVSS VL: DIRVTQSPVSLPVTPGEPASISCRSSQSLLHSNGNNYLDWYLQKPGQSPQLLIYMGSYRASGVPDRFSGSGSGTDFTLKISRVEAEDVGVYYCMQGLQIPWTFGQGTKLEIK 0.261
